# Test system: 422866-222-R5-J1-PDC complex spheroids viability
# protocol description: Anticancer human tumor 422866-222-R5-J1-PDC patient-derived pancreatic adenocarcinoma cell line growth inhibition [RAS]
# condition notes: second compound 0.03 µM; first compound 0.01 µM; stronger effect = lower value
measure: viability, T/C

Problem: For the record C=CC(=O)N1CCN(c2nc(OCC3CCCN3C)nc3c(F)c(-c4nc(N)cc(C)c4C(F)(F)F)c(Cl)cc23)C(C)C1 (centres undefined) + CCn1c(-c2cc(N3CCN(C)CC3)cnc2C(C)OC)c2c3cc(ccc31)-c1csc(n1)CC(NC(=O)C1CC1C)C(=O)N1CCCC(N1)C(=O)OCC(C)(C)C2 , what value of viability, T/C is listed for 422866-222-R5-J1-PDC complex spheroids viability?
Solution: 15.9%

Problem: Same thing, different molecule: CCN1CCN(Cc2ccc(Nc3ncc(F)c(-c4cc(F)c5nc(C)n(C(C)C)c5c4)n3)nc2)CC1 + CCn1c(-c2cccnc2C(C)OC)c2c3cc(ccc31)N1CCOC(CC(NC(=O)C(C(C)C)N(C)C(=O)C3(F)CCN(C(=O)C#CC(C)(C)N(C)C)CC3)C(=O)N3CCCC(N3)C(=O)OCC(C)(C)C2)C1
Solution: 19.9%

Problem: Same thing, different molecule: CC(C)n1nc(-c2ccc3oc(N)nc3c2)c2c(N)ncnc21 + CCn1c(-c2cccnc2C(C)OC)c2c3cc(ccc31)N1CCOC(CC(NC(=O)C(C(C)C)N(C)C(=O)C3(F)CCN(C(=O)C#CC(C)(C)N(C)C)CC3)C(=O)N3CCCC(N3)C(=O)OCC(C)(C)C2)C1
Solution: 16.6%

---
Problem: For the record C=CC(=O)Nc1cc(Nc2nccc(-c3cn(C)c4ccccc34)n2)c(OC)cc1N(C)CCN(C)C + CCn1c(-c2cc(N3CCN(C)CC3)cnc2C(C)OC)c2c3cc(ccc31)-c1csc(n1)CC(NC(=O)C1CC1C)C(=O)N1CCCC(N1)C(=O)OCC(C)(C)C2 , what value of viability, T/C is listed for 422866-222-R5-J1-PDC complex spheroids viability?
Solution: 18.6%

---

Recorded viability, T/C for the following compounds
# System: 422866-222-R5-J1-PDC complex spheroids viability
# protocol description: Anticancer human tumor 422866-222-R5-J1-PDC cell line growth inhibition [RAS];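 note: spheroids exposed to compounds for 7 days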;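 for viability, T/C: 100% = DMSO vehicle control viability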
# condition notes: second compound 0.00949 µM; first compound 0.0316 µM; stronger effect = lower value
Value expressed in %; do not type the unit.

Examples from the recorded data:
Problem: Look up viability, T/C: C[C@@H](NC(=O)c1ncnc(N)c1Cl)c1ncc(C(=O)Nc2cc(C(F)(F)F)c(Cl)cn2)s1 + CCn1c(-c2cccnc2C(C)OC)c2c3cc(ccc31)N1CCOC(CC(NC(=O)C(C(C)C)N(C)C(=O)C3(F)CCN(C(=O)C#CC(C)(C)N(C)C)CC3)C(=O)N3CCCC(N3)C(=O)OCC(C)(C)C2)C1
Solution: 26.9

Problem: Same thing, different compound: CC(Nc1ccc2c(c1)OCCn1cc(N3C(=O)OCC3C(F)F)nc1-2)C(N)=O (configuration not stated) + CCn1c(-c2cc(N3CCN(C)CC3)cnc2C(C)OC)c2c3cc(ccc31)-c1csc(n1)CC(NC(=O)C1CC1C)C(=O)N1CCCC(N1)C(=O)OCC(C)(C)C2
Solution: 16.1

Problem: Same thing, different compound: Cc1nc(N2CCC3(CC2)COC(C)C3N)c(CO)nc1Sc1ccnc(N)c1Cl (configuration not stated) + CCn1c(-c2cc(N3CCN(C)CC3)cnc2C(C)OC)c2c3cc(ccc31)-c1csc(n1)CC(NC(=O)C1CC1C)C(=O)N1CCCC(N1)C(=O)OCC(C)(C)C2
Solution: 19.2

Problem: Same thing, different compound: C=CC(=O)Nc1cc(Nc2nccc(-c3cn(C)c4ccccc34)n2)c(OC)cc1N(C)CCN(C)C + CCn1c(-c2cccnc2C(C)OC)c2c3cc(ccc31)N1CCOC(CC(NC(=O)C(C(C)C)N(C)C(=O)C3(F)CCN(C(=O)C#CC(C)(C)N(C)C)CC3)C(=O)N3CCCC(N3)C(=O)OCC(C)(C)C2)C1
Solution: 17.2

Problem: Same thing, different compound: CCN1CCN(Cc2ccc(Nc3ncc(F)c(-c4cc(F)c5nc(C)n(C(C)C)c5c4)n3)nc2)CC1 + CCn1c(-c2cccnc2C(C)OC)c2c3cc(ccc31)N1CCOC(CC(NC(=O)C(C(C)C)N(C)C(=O)C3(F)CCN(C(=O)C#CC(C)(C)N(C)C)CC3)C(=O)N3CCCC(N3)C(=O)OCC(C)(C)C2)C1
Solution: 20

---
Problem: Look up viability, T/C: CC(=O)OC12COC1CC(O)C1(C)C(=O)C(O)C3=C(C)C(OC(=O)C(O)C(NC(=O)OC(C)(C)C)c4ccccc4)CC(O)(C(OC(=O)c4ccccc4)C21)C3(C)C (configuration not stated) + CCn1c(-c2cccnc2C(C)OC)c2c3cc(ccc31)N1CCOC(CC(NC(=O)C(C(C)C)N(C)C(=O)C3(F)CCN(C(=O)C#CC(C)(C)N(C)C)CC3)C(=O)N3CCCC(N3)C(=O)OCC(C)(C)C2)C1
Solution: 19.9

Problem: Same thing, different compound: CCN1CCN(Cc2ccc(Nc3ncc(F)c(-c4cc(F)c5nc(C)n(C(C)C)c5c4)n3)nc2)CC1 + CCn1c(-c2cc(N3CCN(C)CC3)cnc2C(C)OC)c2c3cc(ccc31)-c1csc(n1)CC(NC(=O)C1CC1C)C(=O)N1CCCC(N1)C(=O)OCC(C)(C)C2
Solution: 18.3

Problem: Same thing, different compound: CC(C)NCC(C(=O)N1CCN(c2ncnc3c2C(C)CC3O)CC1)c1ccc(Cl)cc1 (configuration not stated) + CCn1c(-c2cccnc2C(C)OC)c2c3cc(ccc31)N1CCOC(CC(NC(=O)C(C(C)C)N(C)C(=O)C3(F)CCN(C(=O)C#CC(C)(C)N(C)C)CC3)C(=O)N3CCCC(N3)C(=O)OCC(C)(C)C2)C1
Solution: 21.1

Problem: Same thing, different compound: Nc1ccn(C2OC(CO)C(O)C2(F)F)c(=O)n1 (configuration not stated) + CCn1c(-c2cccnc2C(C)OC)c2c3cc(ccc31)N1CCOC(CC(NC(=O)C(C(C)C)N(C)C(=O)C3(F)CCN(C(=O)C#CC(C)(C)N(C)C)CC3)C(=O)N3CCCC(N3)C(=O)OCC(C)(C)C2)C1
Solution: 17.9

Problem: Same thing, different compound: O=C(c1ccc(F)c(F)c1Nc1ccc(I)cc1F)N1CC(O)([C@@H]2CCCCN2)C1 + CCn1c(-c2cc(N3CCN(C)CC3)cnc2C(C)OC)c2c3cc(ccc31)-c1csc(n1)CC(NC(=O)C1CC1C)C(=O)N1CCCC(N1)C(=O)OCC(C)(C)C2
Solution: 14.5

Problem: Same thing, different compound: NC1c2ccccc2OC12CCN(c1cnc3c(N4CCCc5ncccc54)n[nH]c3n1)CC2 (configuration not stated) + CCn1c(-c2cccnc2C(C)OC)c2c3cc(ccc31)N1CCOC(CC(NC(=O)C(C(C)C)N(C)C(=O)C3(F)CCN(C(=O)C#CC(C)(C)N(C)C)CC3)C(=O)N3CCCC(N3)C(=O)OCC(C)(C)C2)C1
Solution: 17.7

Problem: Same thing, different compound: CC1(O)CCCC1n1c(=O)c(C(F)F)cc2cnc(NC3CCN(S(C)(=O)=O)CC3)nc21 (configuration not stated) + CCn1c(-c2cccnc2C(C)OC)c2c3cc(ccc31)N1CCOC(CC(NC(=O)C(C(C)C)N(C)C(=O)C3(F)CCN(C(=O)C#CC(C)(C)N(C)C)CC3)C(=O)N3CCCC(N3)C(=O)OCC(C)(C)C2)C1
Solution: 25.3

---

# System: 422866-222-R5-J1-PDC complex spheroids viability
# protocol description: Anticancer human tumor 422866-222-R5-J1-PDC cell line growth inhibition [RAS];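 note: spheroids exposed to compounds for 7 days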;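 for viability, T/C: 100% = DMSO vehicle control viability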
# condition notes: second compound 0.1 µM; first compound 0.316 µM; stronger effect = lower value
Labelling: viability, T/C reported below 50% becomes 1; at or above becomes -1.

Problem: Could you please tell me whether viability, T/C recorded for Cc1nc(N2CCC3(CC2)COC(C)C3N)c(CO)nc1Sc1ccnc(N)c1Cl (stereo not given) + C=CC(=O)N1CCN(c2nc(OCC3CCCN3C)nc3c(F)c(-c4nc(N)cc(C)c4C(F)(F)F)c(Cl)cc23)C(C)C1 is less than 50%?
Solution: 1

---

# Test system: 422866-222-R5-J1-PDC complex spheroids viability
# protocol description: Anticancer human tumor 422866-222-R5-J1-PDC cell line growth inhibition [RAS];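 note: spheroids exposed to compounds for 7 days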
# condition notes: curve of first compound; second compound 0.1 µM
pIC50: −log10 of the molar value.
measure: pIC50

Problem: Look up pIC50: NC1c2ccccc2OC12CCN(c1cnc3c(N4CCCc5ncccc54)n[nH]c3n1)CC2 (centres undefined) + C=CC(=O)N1CCN(c2nc(OCC3CCCN3C)nc3c(F)c(-c4nc(N)cc(C)c4C(F)(F)F)c(Cl)cc23)C(C)C1
Solution: > 7.50

Problem: Same thing, different molecule: NC1c2ccccc2OC12CCN(c1cnc3c(N4CCCc5ncccc54)n[nH]c3n1)CC2 (centres undefined) + C#Cc1c(F)ccc2cc(O)cc(-c3ncc4c(N5CC6CCC(C5)N6)nc(OCC56CCCN5CC(F)C6)nc4c3F)c12
Solution: > 7.50

Problem: Same thing, different molecule: C=CC(=O)Nc1cc(Nc2nccc(-c3cn(C)c4ccccc34)n2)c(OC)cc1N(C)CCN(C)C + C=CC(=O)N1CCN(c2nc(OCC3CCCN3C)nc3c(F)c(-c4nc(N)cc(C)c4C(F)(F)F)c(Cl)cc23)C(C)C1
Solution: > 8.50

Problem: Same thing, different molecule: CC1(O)CCCC1n1c(=O)c(C(F)F)cc2cnc(NC3CCN(S(C)(=O)=O)CC3)nc21 (centres undefined) + C#Cc1c(F)ccc2cc(O)cc(-c3ncc4c(N5CC6CCC(C5)N6)nc(OCC56CCCN5CC(F)C6)nc4c3F)c12
Solution: 5.07

Problem: Same thing, different molecule: CC(C)n1nc(-c2ccc3oc(N)nc3c2)c2c(N)ncnc21 + C#Cc1c(F)ccc2cc(O)cc(-c3ncc4c(N5CC6CCC(C5)N6)nc(OCC56CCCN5CC(F)C6)nc4c3F)c12
Solution: < 7.00

Problem: Same thing, different molecule: CCN1CCN(Cc2ccc(Nc3ncc(F)c(-c4cc(F)c5nc(C)n(C(C)C)c5c4)n3)nc2)CC1 + C=CC(=O)N1CCN(c2nc(OCC3CCCN3C)nc3c(F)c(-c4nc(N)cc(C)c4C(F)(F)F)c(Cl)cc23)C(C)C1
Solution: > 8.50

Problem: Same thing, different molecule: CC(=O)OC12COC1CC(O)C1(C)C(=O)C(O)C3=C(C)C(OC(=O)C(O)C(NC(=O)OC(C)(C)C)c4ccccc4)CC(O)(C(OC(=O)c4ccccc4)C21)C3(C)C (centres undefined) + C#Cc1c(F)ccc2cc(O)cc(-c3ncc4c(N5CC6CCC(C5)N6)nc(OCC56CCCN5CC(F)C6)nc4c3F)c12
Solution: < 5.00

Problem: Same thing, different molecule: CC1(C)CCC(Nc2ncc(C(F)(F)F)c(-c3c[nH]c4c(P(C)(C)=O)c(C#N)ccc34)n2)CN1 (centres undefined) + C#Cc1c(F)ccc2cc(O)cc(-c3ncc4c(N5CC6CCC(C5)N6)nc(OCC56CCCN5CC(F)C6)nc4c3F)c12
Solution: 7.04

---
Problem: Look up pIC50: Nc1ccn(C2OC(CO)C(O)C2(F)F)c(=O)n1 (centres undefined) + C=CC(=O)N1CCN(c2nc(OCC3CCCN3C)nc3c(F)c(-c4nc(N)cc(C)c4C(F)(F)F)c(Cl)cc23)C(C)C1
Solution: > 8.50

Problem: Same thing, different molecule: CC(C)n1nc(-c2ccc3oc(N)nc3c2)c2c(N)ncnc21 + C=CC(=O)N1CCN(c2nc(OCC3CCCN3C)nc3c(F)c(-c4nc(N)cc(C)c4C(F)(F)F)c(Cl)cc23)C(C)C1
Solution: > 9.50

Problem: Same thing, different molecule: C=CC(=O)Nc1cc(Nc2nccc(-c3cn(C)c4ccccc34)n2)c(OC)cc1N(C)CCN(C)C + C#Cc1c(F)ccc2cc(O)cc(-c3ncc4c(N5CC6CCC(C5)N6)nc(OCC56CCCN5CC(F)C6)nc4c3F)c12
Solution: < 6.00

Problem: Same thing, different molecule: CC(C)NCC(C(=O)N1CCN(c2ncnc3c2C(C)CC3O)CC1)c1ccc(Cl)cc1 (centres undefined) + C#Cc1c(F)ccc2cc(O)cc(-c3ncc4c(N5CC6CCC(C5)N6)nc(OCC56CCCN5CC(F)C6)nc4c3F)c12
Solution: < 5.00

Problem: Same thing, different molecule: Nc1ccn(C2OC(CO)C(O)C2(F)F)c(=O)n1 (centres undefined) + C#Cc1c(F)ccc2cc(O)cc(-c3ncc4c(N5CC6CCC(C5)N6)nc(OCC56CCCN5CC(F)C6)nc4c3F)c12
Solution: 7.53

Problem: Same thing, different molecule: O=C(c1ccc(F)c(F)c1Nc1ccc(I)cc1F)N1CC(O)([C@@H]2CCCCN2)C1 + C#Cc1c(F)ccc2cc(O)cc(-c3ncc4c(N5CC6CCC(C5)N6)nc(OCC56CCCN5CC(F)C6)nc4c3F)c12
Solution: 6.56
